Origin of measurements: the supplement of paper PMC8728848

Exercise: for every item that follows, state its recorded glycan array binding signal (z-score).
- Experimental target: GalNAc(b1-3)GalNAc
- Experiment notes: glycan array binding signal (z-score within array); higher = stronger binding
- Condition set: glycan notation: IUPAC condensed, linker removed
Only a selection was taken, and the strongest signals are over-represented in it overall.
The answer should be a number; do not append a unit.

Which value of glycan array binding signal (z-score) has been reported for HPAIIITrx (Helix pomatia), Q1KM18 (protein) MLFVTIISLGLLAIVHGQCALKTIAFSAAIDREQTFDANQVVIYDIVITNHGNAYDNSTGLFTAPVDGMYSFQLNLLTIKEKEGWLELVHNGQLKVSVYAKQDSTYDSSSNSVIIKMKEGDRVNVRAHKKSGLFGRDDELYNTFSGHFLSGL in the records?
-0.254

Which value of glycan array binding signal (z-score) has been reported for Gal 10 (Homo sapiens), Q05315 (protein) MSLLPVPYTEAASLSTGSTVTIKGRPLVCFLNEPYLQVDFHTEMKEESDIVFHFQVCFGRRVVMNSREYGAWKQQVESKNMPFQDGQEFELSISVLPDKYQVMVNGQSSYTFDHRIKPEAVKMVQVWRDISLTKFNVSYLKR in the records?
-0.693

Which value of glycan array binding signal (z-score) has been reported for Intelectin 1 (Homo sapiens), Q8WWA0 (protein) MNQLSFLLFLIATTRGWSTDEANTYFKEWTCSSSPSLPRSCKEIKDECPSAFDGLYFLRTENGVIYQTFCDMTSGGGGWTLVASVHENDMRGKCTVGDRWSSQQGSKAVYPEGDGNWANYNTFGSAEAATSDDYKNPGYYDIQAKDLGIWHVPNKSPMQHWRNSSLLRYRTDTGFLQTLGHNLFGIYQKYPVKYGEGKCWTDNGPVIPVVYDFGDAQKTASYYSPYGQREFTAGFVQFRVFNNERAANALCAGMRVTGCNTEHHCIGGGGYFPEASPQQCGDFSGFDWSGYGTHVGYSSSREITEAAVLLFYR in the records?
-0.802
